B1: POU domain, class 4, transcription factor 1, residues 266 to 347; numbered along this chain, Q01851 (parent)
chain: RELEAFAERFKQRRIKLGVTQADVGSALANLKIPGVGSLSQSTICRFESLTLSHNNMIALKPILQAWLEEAEGAQREKMNKP

variants of: B1; assay: abundance fitness (aPCA) (normalised: wild type 0, dead -1); higher = more abundant; growth selection in yeast, the domain comes from the species named; settings: Homo sapiens
Record form. Attribute: abundance fitness. Fill in for each entry.

Look at this variant and give its reported abundance fitness. "A5V"
-0.06

Look at this variant and give its reported abundance fitness. "N80V"
0.098

Look at this variant and give its reported abundance fitness. "P82E"
-0.005

Look at this variant and give its reported abundance fitness. "I63F"
0.027

Look at this variant and give its reported abundance fitness. "G73P"
-0.259

Look at this variant and give its reported abundance fitness. "N80W"
-0.089

Look at this variant and give its reported abundance fitness. "R1M"
0.004

Look at this variant and give its reported abundance fitness. "E70H"
-0.077

Look at this variant and give its reported abundance fitness. "E72H"
-0.456

Look at this variant and give its reported abundance fitness. "K61D"
-0.635

Look at this variant and give its reported abundance fitness. "H54A"
0.01

Look at this variant and give its reported abundance fitness. "S49G"
-0.002

Look at this variant and give its reported abundance fitness. "L52T"
-0.472

Look at this variant and give its reported abundance fitness. "F6E"
-0.359

Look at this variant and give its reported abundance fitness. "W67T"
-0.805

Look at this variant and give its reported abundance fitness. "L68R"
-0.774

Look at this variant and give its reported abundance fitness. "A71N"
0.044

Look at this variant and give its reported abundance fitness. "D23T"
-0.118

Look at this variant and give its reported abundance fitness. "K61V"
-0.105

Look at this variant and give its reported abundance fitness. "S42P"
-0.198

Look at this variant and give its reported abundance fitness. "T51F"
-0.406

Look at this variant and give its reported abundance fitness. "T43L"
0.053
